Give Average Relative Luminescence Units for every item shown.
- subject_of_test: CD28 (Homo sapiens, UniProt P10747)
- experimental_details: Jurkat/IL2 reporter assay: blockade of CD28 costimulation (plate-bound anti-CD3/CD86-Fc)
- Type: cell-based
- Set-up: host or cells: Jurkat cells expressing an IL-2-luciferase reporter
- stated_conditions: Table E5; protein diluted to 40 nM before mixing with cells; 5 hours

Exercise: Using the record for I30T/L70R: variant CD80 IgV-Fc, IgV SEQ ID NO:154 (protein) VIHVTKEVKEVATLSCGHNVSVEELAQTRTYWQKEKKMVLTMMSGDMNIWPEYKNRTIFDITNNLSIVIRALRPSDEGTYECVVLKYEKDAFKREHLAEVTLSVKAD , report its Average Relative Luminescence Units.
Key: 3236 Relative Luminescence Units

Exercise: Using the record for V20I/M47V/I57I/V84I: variant CD80 IgV-Fc, IgV SEQ ID NO:190 (protein) VIHVTKEVKEVATLSCGHNISVEELAQTRIYWQKEKKMVLTMMSGDVNIWPEYKNRIIFDITNNLSIVILALRPSDEGTYECVILKYEKDAFKREHLAEVTLSVKAD , report its Average Relative Luminescence Units.
Key: 1870 Relative Luminescence Units

Exercise: Using the record for E35D/M47I/L65P/D90N: variant CD80 IgV-Fc, IgV SEQ ID NO:167 (protein) VIHVTKEVKEVATLSCGHNVSVEELAQTRIYWQKDKKMVLTMMSGDINIWPEYKNRTIFDITNNPSIVILALRPSDEGTYECVVLKYEKNAFKREHLAEVTLSVKAD , report its Average Relative Luminescence Units.
Key: 2377 Relative Luminescence Units

Origin of the recorded values: patent US20220177587A1
